// data source = patent US20230250190A1

# targetOrTestSystem: T1, T9 (Tn-MUC1) (PAPGSTAPPAHGVT(α-GalNAc)S(α-GalNAc)APDTRPAPG-OH)
# T1 peptide: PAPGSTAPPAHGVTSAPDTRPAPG
# assayProcedure: glycopeptide array
Below, each of the binders is paired with its reported EC50 value.
Please give a number only; it is taken to be in µg/mL.

- binder: "62 (antibody, V domains shown) VH: QVQLVESGAEVKKPGASVKVSCKASGYSFTSYYIQWVRQAPGQGLEWLAVINPIDGSTNYAQKFQGRVTVTRDTSTSTVYMELSSLRSEDTAVYYCARDYMRGFVVFDYWGQGTLVTVSS"
  EC50 (µg/mL): 0.045
- binder: "94 (antibody, V domains shown) VH: QVQLVQSGAEVKKPGSSVKVSCKASGYTFNSYYIHWVRQAPGQGLTWMGVINPFDGSTDYAQKFQGRVTMTRDTSTSTVYMDLSSLRSEDTAVYYCARDYMRGYVVFDYWGRGTLVTVSS"
  EC50 (µg/mL): 0.033
- binder: "110 (antibody, V domains shown) VH: QVQLVQSGAEMKKPGASVKVSCKASGYTFTNYYIHWVRQAPGQGLEWMGVINPYDGSTNYAQKFQGRVTLTRDTSTTTVYMELSSLRSEDTAVYYCARDYMIGYVVFDFWGQGTLVTVSS"
  EC50 (µg/mL): 0.139
- binder: "118 (antibody, V domains shown) VH: QVQLVQSGAEVKKPGASVKVSCKASGYTFTNYYIQWVRQAPGQGLEWMGVINPYDGSTNYAQRFQGKITLTRDTSTTTVYMELSSLGSEDTAVYYCARDYMIGYVVFDYWGQGTMVTVSS"
  EC50 (µg/mL): 0.102
- binder: "13 (antibody, V domains shown) VH: QVQLVQSGAEVKKPGASLKVSCKASGYTFTNYYIQWVRQAPGQGLEWMGVINPYDGSTNYAQKFQGRVTLTRDTSTTTVYMELSSLRSDDTAVYYCARDYMIGYVVFDYWGQGTLVTVSS"
  EC50 (µg/mL): 0.134

For the binder 154 (antibody, V domains shown) VH: QVQLVQSGAEVKKSGASVKVSCKASGYIFTSYYIQWVRQAPGQGLEWMGVINPFDGSTDYAQKFQGRVTVTRDTSTTTVFMELSSLRSEDTAVYYCARDNMLGYVLFDYWGQGTLVTVSS , report EC50.
0.106

For the binder 138 (antibody, V domains shown) VH: QVQLVQSGAEVKKPGASVRVSCKASGYTFINYYLQWVRQAPGQGLEWMGTINPFDGSTHYAQKFQGRVTMTRDTSTSTVYMELSSLRSEDTAVYYCARDSMIGYVLFDYWGQGTLVTVSS , report EC50.
0.096

For the binder 134 (antibody, V domains shown) VH: QVQLVQSGAEVKKPGASVEVSCKASGYTFINYYIHWVRQAPGQGLEWMGVINPFDGSTNYAQKFQGRVTVTRDTSTSTVFLDLSSLRPEDTAVYYCARDSMIGYVLFDYWGQGTLVTVSS , report EC50.
0.095

For the binder 170 (antibody, V domains shown) VH: QVQLVQSGAEVKKPGASVQVSCKASGYTFINYYLQWVRQAPGQGLEWMGTINPFDGSTHYAQKFQGRVTMTRDTSTNTVYMELNSLRSEDTAVYYCARDRMIGYVLFDYWGQGTLVTVSS , report EC50.
0.127

For the binder 74 (antibody, V domains shown) VH: QVQLVQSGAEVKKPGASVQVSCKASGYTFINYYLQWVRQAPGQGLEWMGTINPFDGSTHYEQNFQGRVTMTRDTSTNTVYMELNGLRSEDTAVYYCARDHMIGYILFDYWGQGTTVTVSS , report EC50.
0.096

For the binder 106 (antibody, V domains shown) VH: QVQLVQSGAEMKKPGASVKISCKASGYTFTNYYIQWVRQAPGQGLEWMGVINPYDGSTNYAQRFQGRVTLTRDTSTTTVYMELSSLRSEDTAVYYCARDYMIGYVVFDFWGQGTLVTVSS , report EC50.
0.032
